biological target: protein kinase B (UniProt P31749); experiment: cell-based or functional assay
Sequence (P31749 whole entry): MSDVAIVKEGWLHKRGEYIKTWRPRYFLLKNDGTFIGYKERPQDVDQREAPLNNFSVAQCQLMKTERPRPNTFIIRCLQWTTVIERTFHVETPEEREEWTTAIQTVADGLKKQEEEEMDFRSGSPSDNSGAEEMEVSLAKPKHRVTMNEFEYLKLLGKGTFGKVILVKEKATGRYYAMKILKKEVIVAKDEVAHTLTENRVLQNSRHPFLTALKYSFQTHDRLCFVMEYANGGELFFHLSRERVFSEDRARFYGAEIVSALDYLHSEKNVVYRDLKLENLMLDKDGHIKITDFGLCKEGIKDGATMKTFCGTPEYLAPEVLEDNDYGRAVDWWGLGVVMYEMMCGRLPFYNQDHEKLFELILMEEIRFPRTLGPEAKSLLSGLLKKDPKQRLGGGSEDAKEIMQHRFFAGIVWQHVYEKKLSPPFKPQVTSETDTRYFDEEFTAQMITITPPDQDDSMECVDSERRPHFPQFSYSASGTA
Where no end group is shown, it is not given here. Side-chain parts run from the residue outwards. [ ]: non-standard residue; d: D form. The star is where a group is joined. X1 = 5‑aminoethylsulfonamide isoquinoline, O=S(=O)(NCCN*)c1cccc2cnccc12; hLeu = CC(C)CC[C@H](N)C(=O)O; Nle = CCCC[C@H](N)C(=O)O; Orn = NCCC[C@H](N)C(=O)O; Dab = NCC[C@H](N)C(=O)O; Nva = CCC[C@H](N)C(=O)O; βAla = NCCC(=O)O
Here the recorded % inhibition of kinase activity at 1 µM; PKB-kinase (spa) Assay 2 is given for each entry.
Enter your answer as a number in %; do not include the unit.

Example cases with answers are listed next.
INSERT INTO measurements (binder, assay_result) VALUES
  ('RPR[Nle]E([βAla-X1])[Nva][hLeu] (not fully specified (C-terminus)) [TY-60020-96]', 54),
  ('RPR[Nle]E([Gly-X1])[Dab]F (not fully specified (C-terminus)) [TY-60020-57]', 93);

Entry RPR[Nle]E([Gly-X1])[Orn]F (not fully specified (C-terminus)) [TY-60020-59] : reported % inhibition of kinase activity at 1 µM; PKB-kinase (spa) Assay 2 = ?
75

Entry RPR[Orn]E(X1)[Orn]F (not fully specified (C-terminus)) [TY-60020-11] : reported % inhibition of kinase activity at 1 µM; PKB-kinase (spa) Assay 2 = ?
52

Entry RPR[Orn]E(X1)[Dab]F (not fully specified (C-terminus)) [TY-60020-9] : reported % inhibition of kinase activity at 1 µM; PKB-kinase (spa) Assay 2 = ?
57

Entry RPR[Nle]E([βAla-X1])A[hLeu] (not fully specified (C-terminus)) [TY-60020-94] : reported % inhibition of kinase activity at 1 µM; PKB-kinase (spa) Assay 2 = ?
31

Entry RPR[Nle]E([Gly-X1])[Dab][hLeu] (not fully specified (C-terminus)) [TY-60020-58] : reported % inhibition of kinase activity at 1 µM; PKB-kinase (spa) Assay 2 = ?
93

Entry RPR[Orn]E(X1)[Dab][hLeu] (not fully specified (C-terminus)) [TY-60020-10] : reported % inhibition of kinase activity at 1 µM; PKB-kinase (spa) Assay 2 = ?
48
